ASSAY TARGET: human mAChR M4 (Homo sapiens, UniProt P08173)
Construct: expressed in transfected cells; host or cells: CHO-K1 (ATCC), stably co-expressing chimeric G protein Gqi5
Sequence (P08173 whole entry): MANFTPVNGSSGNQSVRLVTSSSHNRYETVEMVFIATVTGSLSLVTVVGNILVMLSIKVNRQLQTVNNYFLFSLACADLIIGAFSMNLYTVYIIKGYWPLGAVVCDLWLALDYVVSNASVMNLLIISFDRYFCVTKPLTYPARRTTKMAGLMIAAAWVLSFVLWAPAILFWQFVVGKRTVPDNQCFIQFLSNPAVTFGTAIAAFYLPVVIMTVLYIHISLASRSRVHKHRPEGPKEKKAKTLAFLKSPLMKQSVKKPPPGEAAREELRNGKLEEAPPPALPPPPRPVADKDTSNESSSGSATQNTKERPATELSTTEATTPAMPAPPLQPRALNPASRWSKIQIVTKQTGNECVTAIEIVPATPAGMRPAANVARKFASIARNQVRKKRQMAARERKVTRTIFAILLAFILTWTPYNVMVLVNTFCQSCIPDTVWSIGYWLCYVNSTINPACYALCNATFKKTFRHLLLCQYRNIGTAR
ASSAY PROCEDURE: mAChR M4 cell-based functional assay (calcium mobilization, EC80 acetylcholine), human M4
COND: Table 10; M4/Gqi5/CHO-K1 cells, decrease of EC80 acetylcholine response
pIC50: −log10 of the molar value.
pIC50 values, listed per item

| COMPOUND SMILES | pIC50 |
| --- | --- |
| COc1cccc(-c2ccc(N[C@H]3C[C@@H]4CN(CC5CCOCC5)C[C@@H]4C3)nn2)c1 | 8.40 |
| FC1(F)CCN(c2ccc(N[C@H]3C[C@@H]4CN(CC5CCOCC5)C[C@@H]4C3)nn2)C1 | 8.68 |
| COc1ccccc1CN1C[C@H]2C[C@H](Nc3ccc(-c4cc(F)ccc4Cl)nn3)C[C@H]2C1 | 6.68 |
| Cc1ccc(F)cc1-c1ccc(N[C@H]2C[C@@H]3CN(CC4CCOCC4)C[C@@H]3C2)nn1 | 9.53 |
| COc1ccc(-c2ccc(N[C@H]3C[C@@H]4CN(CC5CCOCC5)C[C@@H]4C3)nn2)cn1 | 8.16 |
| FC(F)(F)Oc1ccc(-c2ccc(N[C@H]3C[C@@H]4CN(CC5CCOCC5)C[C@@H]4C3)nn2)cc1 | 7.25 |
| CCn1ccc(-c2ccc(N[C@H]3C[C@@H]4CN(CC5CCOCC5)C[C@@H]4C3)nn2)n1 | 7.42 |
